- Tested on: 699152-130-R-J1-PDC complex spheroid growth;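 note: compound exposure lasted 7 days after spheroids had grown for 3 days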
- ASSAY INFO: Anticancer human tumor 699152-130-R-J1-PDC patient-derived pancreatic carcinoma cell line growth inhibition [AhR]
- REPORTED CONDITIONS: second compound 1 µM; first compound 0.0316 µM; hits give low values
Assign viability, T/C to each entry below.
Report the value in % with no unit label.

Task: Quick check: viability, T/C of CC1COCCN1c1cc(C2(S(C)(=N)=O)CC2)nc(-c2ccnc3[nH]ccc23)n1 (stereo unspecified) + Cc1ccccc1N=Nc1ccc(NC(=O)c2ccnn2C)c(C)c1 ?
Result: 90.5

Task: Then this compound: Cn1ncnc1C1c2n[nH]c(=O)c3cc(F)cc(c23)NC1c1ccc(F)cc1 (stereo unspecified) + CC(CO)NC(=O)c1cc(-c2ccc(Cl)cc2)nn(-c2cnn(C)c2)c1=O
Result: 101

Task: Then this compound: O=C(c1cc(Cc2n[nH]c(=O)c3ccccc23)ccc1F)N1CCN(C(=O)C2CC2)CC1 + Cc1ccccc1N=Nc1ccc(NC(=O)c2ccnn2C)c(C)c1
Result: 106

Task: Then this compound: CC1COCCN1c1cc(-c2ccnn2C)c2ccnc(-c3ccn[nH]3)c2n1 (stereo unspecified) + Cc1cncc(-c2nc(NCCc3c[nH]c4ccccc34)c3ncn(C(C)C)c3n2)c1
Result: 135

Task: Then this compound: CC[C@@]1(O)C(=O)OCc2c1cc1n(c2=O)Cc2cc3c(CN(C)C)c(O)ccc3nc2-1 + Cc1ccccc1N=Nc1ccc(NC(=O)c2ccnn2C)c(C)c1
Result: 60.5

Task: Then this compound: CC(C)c1c(-c2ccccc2)nc2c(C#N)c[nH]n2c1=O + CC(CO)NC(=O)c1cc(-c2ccc(Cl)cc2)nn(-c2cnn(C)c2)c1=O
Result: 99.7

Origin of values: PubChem BioAssay AID1919001
